The reported numbers originate from the supplement of paper PMC6757056.

B1: library; a variant is named by its letters at N, in order (parent)
chain: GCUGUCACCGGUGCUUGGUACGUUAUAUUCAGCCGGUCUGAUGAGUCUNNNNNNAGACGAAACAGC

Variants of: B1
Experiment: normalized RNA/DNA level without ligand (relative to sTRSVctl = 100) (log10 (% of sTRSVctl)); HEK293T overexpressing SLC46A1; higher = less ribozyme self-cleavage, higher mRNA level
Conditions: without (6R,S)-folinic acid; ligand present: no
Parameter threshold = 2. Response is 1 when normalized RNA/DNA level without ligand (log10) meets or exceeds it, else 0.

1) UCUCAC 1
2) UGAGCG 0
3) UCCGAG 0
4) AUAUGU 0
5) CGUGUC 1

Kindly determine if normalized RNA/DNA level without ligand (log10) recorded for "CGUAAU" is above or exactly 2.
0

Test whether the variant "GUGCCA" records normalized RNA/DNA level without ligand (log10) of 2 or higher.
1

Would you say "UUAAUG" shows normalized RNA/DNA level without ligand (log10) at minimum 2?
0

Record "AAGGAU" ; criterion: normalized RNA/DNA level without ligand (log10) no lower than 2. Met?
0

Check this variant for normalized RNA/DNA level without ligand (log10) at or above 2: "UUUGAA"
0

Hi, just wondering whether "CCCAUU" shows normalized RNA/DNA level without ligand (log10) of 2 or higher.
1

Kindly determine if normalized RNA/DNA level without ligand (log10) recorded for "GGCUGA" is above or exactly 2.
1
